Assay: siRNA encapsulation in lipid nanoparticles (SYBR Gold)
Type: physicochemical
Conditions: Table 2; FVII siRNA in LNP with the cationic lipid
Each record here notes measured % encapsulation siRNA FVII.
READOUT TYPE: % encapsulation siRNA FVII (%)

COMPOUND	MEASURED
CCCCCCCCCCCCC(CCOC(=O)CCCCCCC(OCCCC)OCCCC)OC(=O)OCCCN(CC)CC (centres unmarked)	76.7
CCCCCCCCCCCCC(CCOC(=O)CCCCC(OCCCCCC)OCCCCCC)OC(=O)OCCCN(CC)CC (centres unmarked)	88.3
CCCCC/C=C\C/C=C\CCCCCCCC(=O)OCCC(CCCCCCCCCCOC(=O)CCCCCCC)OC(=O)OCCCN(C)C (centres unmarked)	82.4
CCCCCCCCCCCCC(CCC(=O)OC(COC(=O)CCCCCCCCCCC)COC(=O)CCCCCCCCCCC)OC(=O)OCCCN(CC)CC (centres unmarked)	77.4
CCCCCCCCCCCCC(CCC(=O)OC(COC(=O)CCCCCCCCC)COC(=O)CCCCCCCCC)OC(=O)OCCCN(CC)CC (centres unmarked)	91.4
CCCCC/C=C\C/C=C\CCCCCCCC(=O)OCCN(CCOC(=O)CCCCCCC/C=C\C/C=C\CCCCC)C(=O)CCC(CCCCCCCCCCCC)OC(=O)OCCCN(CC)CC (centres unmarked)	83.2
CCCCCCCCCCCCC(CCOC(=O)CCC(OCCCCCCCC)OCCCCCCCC)OC(=O)OCCCN(CC)CC (centres unmarked)	89.7
CCCCC/C=C\C/C=C\CCCCCCCC(=O)OCC(COC(=O)CCCCCCC/C=C\C/C=C\CCCCC)OC(=O)CCC(CCCCCCCCCCCC)OC(=O)OCCCN(C)C (centres unmarked)	85.2
CCCCCCCC(=O)OCCCCCCCCCCC(CCOC(=O)CCCC(CCCCCCC)CCCCCCC)OC(=O)OCCCN(C)C (centres unmarked)	85.6
CCCCCCCCCCCCC(CCOC(=O)C=C(CCCCCCCC)CCCCCCCC)OC(=O)OCCCN(C)C (centres unmarked)	87.1
CCCCCCCCCCCCC(CCOC(=O)CCCCCCC(COC(=O)CCCCCCC)COC(=O)CCCCCCC)OC(=O)OCCCN(CC)CC (centres unmarked)	91.0

* * *

Assay: Percent encapsulation of mRNA in lipid nanoparticles (Quant-iT Ribogreen)
Assay type: physicochemical
Conditions: Table 2; leptin mRNA in LNP with the cationic lipid
Protocol: All equipment and disposable supplies are certified free of RNase activity by the manufacturer or rendered RNase free by use of the RNaseZap reagent (LifeTechnologies). mRNA is encapsulated at a cationic lipid amine to mRNA phosphate (N:P) molar ratio of 4:1. […] Percent encapsulation of mRNA in lipid nanoparticles is determined using the Quant-iT Ribogreen RNA Assay kit (Life Technologies). […] The difference calculated is the mRNA inside the particle. […]
Each record here notes measured % encapsulation mRNA Leptin.
READOUT TYPE: % encapsulation mRNA Leptin (%)

COMPOUND	RESULT UNITS	MEASURED
CCCCCCCCCCCCC(OC(=O)OCCCN(CC)CC)C(=O)OC(COC(=O)CCCCCCC)COC(=O)CCCCCCC (centres unmarked)	%	91.5
CCCCC/C=C\C/C=C\CCCCCCCC(=O)OCCN(CCOC(=O)CCCCCCC/C=C\C/C=C\CCCCC)C(=O)CCC(CCCCCCCCCCCC)OC(=O)OCCCN(CC)CC (centres unmarked)	%	72.5
CCCCCCCCCCCCC(CCOC(=O)CCCCC(OCCCCCCCC)OCCCCCCCC)OC(=O)OCCCCN(CC)CC (centres unmarked)	%	80.6
CCCCCCCCCCCCC(CCOC(=O)CCCCCCC(OCC(CCC)CCC)OCC(CCC)CCC)OC(=O)OCCCN(C)C (centres unmarked)	%	98.0
CCCCC/C=C\C/C=C\CCCCCCCC(=O)OCCC(CCCCCCCCCCCC)OC(=O)OCCCN(C)CC (centres unmarked)	%	88.2
CCCCCCCCCCCCC(CCOC(=O)CCC(OCCCCCCCC)OCCCCCCCC)OC(=O)OCCCN(C)C (centres unmarked)	%	96.3
CCCCCCCCCCCCC(CCOC(=O)CCCCC(OCCCCCCCC)OCCCCCCCC)OC(=O)OCCCN1CCNCC1 (centres unmarked)	%	94.6
CCCCCCCCCCCCC(CCOC(=O)CCCCC(COC(=O)CCCCCCC)COC(=O)CCCCCCC)OC(=O)OCCCN1CCCCC1 (centres unmarked)	%	94.9
